# Test system: ncRNAs (SEQ ID NO 28-89)
# Experimental Protocol: ncRNA arrays of melanocytes, keratinocytes, normal skin, melanoma cell lines and patient samples
# Set-up: species or system human
# Experimental Parameters: melanoma patient 28 sample compared to normal skin

Substance | ncRNA array expression, patient 28
SEQ ID NO 57 (TTGTTGTTTTGGGAGATACCCTGTTTAGCCTGAAAGGATTGAGATACTGTAATTGCTATG; listed as DNA, chemistry not given here; listed as Homo sapiens) | 1.064
SEQ ID NO 70 (AGTTATAGAGGAGGCTCAGGAGGATCTGGGGAAACGGGACCAGAGGGTAAGATGGGTTAT; listed as DNA, chemistry not given here; listed as Homo sapiens) | −1.549
SEQ ID NO 47 (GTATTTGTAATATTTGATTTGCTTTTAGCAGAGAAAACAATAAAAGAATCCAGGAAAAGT; listed as DNA, chemistry not given here; listed as Homo sapiens) | −2.481
SEQ ID NO 89 (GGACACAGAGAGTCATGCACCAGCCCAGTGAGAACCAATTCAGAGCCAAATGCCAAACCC; listed as DNA, chemistry not given here; listed as Homo sapiens) | −0.9677
SEQ ID NO 49 (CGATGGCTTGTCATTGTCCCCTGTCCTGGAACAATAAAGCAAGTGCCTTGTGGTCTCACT; listed as DNA, chemistry not given here; listed as Homo sapiens) | −2.621
SEQ ID NO 39 (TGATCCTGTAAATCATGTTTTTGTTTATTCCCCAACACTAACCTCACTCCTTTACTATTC; listed as DNA, chemistry not given here; listed as Homo sapiens) | −1.448
SEQ ID NO 28 (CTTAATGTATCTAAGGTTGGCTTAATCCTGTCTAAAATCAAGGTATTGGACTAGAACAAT; DNA, backbone and methylation of C not given here; listed as Homo sapiens) | 3.316
SEQ ID NO 59 (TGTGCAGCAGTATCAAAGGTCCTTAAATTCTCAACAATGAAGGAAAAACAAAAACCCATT; listed as DNA, chemistry not given here; listed as Homo sapiens) | −1.232
SEQ ID NO 83 (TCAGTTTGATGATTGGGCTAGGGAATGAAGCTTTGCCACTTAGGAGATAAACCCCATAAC; listed as DNA, chemistry not given here; listed as Homo sapiens) | −1.28
SEQ ID NO 51 (ATGTATTTTAGGTAATAAGATTTTTATCAATTGTGTCTTTTTCTTTCTTTGCTTTCTATA; listed as DNA, chemistry not given here; listed as Homo sapiens) | 0.879
SEQ ID NO 78 (ATGGAAAGGCCAGGGGAGGGTGGAGCTCAGGAGTGGAAGCACAGGGACTAAGGCCTGAGC; listed as DNA, chemistry not given here; listed as Homo sapiens) | −3.215
